For each entry below, report its pIC50 value.
- assay target: UniProtKB Q07343
- measurement context: read-out: PDE4B2 IC50; enzyme assay
Answers are plain numbers, as −log10 of the molar value.

Recorded pIC50, per entry:
1) [O-][S+]1CCc2nc(N3CCc4cc(N5CCCC5)ccc4C3)nc(NCCO)c21 (stereo not drawn) [Compound 198]; 9.22
2) [O-][S+]1CCc2nc(N3CCc4cc(N5CCCC5)ccc4C3)nc(Nc3cnn(C4COC4)c3)c21 (stereo not drawn) [Compound 192]; 9.85
3) CN1CCN(c2ccc3c(c2)CCN(c2nc4c(c(NC5(CO)CCC5)n2)[S+]([O-])CC4)C3)CC1 (stereo not drawn) [Compound 170]; 9.14
4) N#CC1CCN(c2ccc3c(c2)CCN(c2nc4c(c(NC5(CO)CCC5)n2)[S+]([O-])CC4)C3)C1 (stereo not drawn) [Compound 160]; 9.65
5) Cn1cc(Nc2nc(N3CCc4cc(N5CCCC5)ccc4C3)nc3c2[S+]([O-])CC3)cn1 (stereo not drawn) [Compound 168]; 9.97
6) CN1C[C@@H](Nc2nc(N3CCc4cc(N5CCCC5)ccc4C3)nc3c2[S+]([O-])CC3)CCC1=O (stereo partly drawn) [Compound 185]; 10.60
7) C[C@@H]1CCCN1c1ccc2c(c1)CCN(c1nc3c(c(NC4(CO)CCC4)n1)[S+]([O-])CC3)C2 (stereo partly drawn) [Compound 133]; 9.29
8) CC1(O)CCN(c2ccc3c(c2)CCN(c2nc4c(c(NC5(CO)CCC5)n2)[S+]([O-])CC4)C3)C1 (stereo not drawn) [Compound 175]; 9.52
9) CC(C)(O)[C@@H]1CCN(c2ccc3c(c2)CCN(c2nc4c(c(NC5(CO)CCC5)n2)[S+]([O-])CC4)C3)C1 (stereo partly drawn) [Compound 173]; 9.41
10) [O-][S+]1CCc2nc(N3CCc4cc(N5CCOCC5)ccc4C3)nc(NC3(CO)CCC3)c21 (stereo not drawn) [Compound 144]; 9.36

State the recorded pIC50 for every item in the following list.
1. [O-][S+]1CCc2nc(N3CCc4cc(N5CC[C@@H](CO)C5)ccc4C3)nc(NC3(CO)CCC3)c21 (stereo partly drawn) [Compound 131]
2. CN1C[C@H]2C[C@@H]1CN2c1ccc2c(c1)CCN(c1nc3c(c(NC4(CO)CCC4)n1)[S+]([O-])CC3)C2 (stereo partly drawn) [Compound 155]
3. Cn1cnc(Nc2nc(N3CCc4cc(N5CCCC5)ccc4C3)nc3c2[S+]([O-])CC3)c1 (stereo not drawn) [Compound 197]
4. COC(=O)N1CC[C@H](Nc2nc(N3CCc4cc(N5CCCC5)ccc4C3)nc3c2[S+]([O-])CC3)C1 (stereo partly drawn) [Compound 196]
5. [O-][S+]1CCc2nc(N3CCc4cc(N5CCC6(COC6)C5)ccc4C3)nc(NC3(CO)CCC3)c21 (stereo not drawn) [Compound 165]

Reply:
[9.83, 9.16, 7.88, 10.16, 9.45]

###

- assay target: Flpin-293-PDE4B2 cells (Homo sapiens)
- Sequence (Q07343 1-564 isoform Q07343-2): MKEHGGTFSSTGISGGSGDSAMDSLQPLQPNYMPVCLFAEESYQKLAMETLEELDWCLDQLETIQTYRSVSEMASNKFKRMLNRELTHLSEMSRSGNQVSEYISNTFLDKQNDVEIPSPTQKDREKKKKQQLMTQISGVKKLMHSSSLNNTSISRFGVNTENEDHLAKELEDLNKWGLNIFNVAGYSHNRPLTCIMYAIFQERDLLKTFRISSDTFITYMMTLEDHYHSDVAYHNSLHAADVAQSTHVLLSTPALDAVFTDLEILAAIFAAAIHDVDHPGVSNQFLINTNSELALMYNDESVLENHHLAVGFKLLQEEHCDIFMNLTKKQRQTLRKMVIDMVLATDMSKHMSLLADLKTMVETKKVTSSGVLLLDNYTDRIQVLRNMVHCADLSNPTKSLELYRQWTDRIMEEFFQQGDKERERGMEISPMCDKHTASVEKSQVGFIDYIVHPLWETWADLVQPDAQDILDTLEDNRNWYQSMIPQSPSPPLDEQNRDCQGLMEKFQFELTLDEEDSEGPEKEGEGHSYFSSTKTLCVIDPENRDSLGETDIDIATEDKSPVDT
- measurement protocol: cell-based
- measurement context: read-out: Cell Inhibition % @100 nM, 100 nM, Flpin-293-PDE4B2 cells
Please go through the items and note down their inhibition at 0.1 µM.
Units required after the number.

Record excerpt, results attached:
1) [O-][S+]1CCc2nc(N3CCc4cc(N5CC6C(C5)C6(F)F)ccc4C3)nc(NC3(CO)CCC3)c21 (stereo not shown) [Compound 161]; 96.3%
2) [O-][S+]1CCc2nc(N3CCc4cc(N5CCCC5)ccc4C3)nc(NC3CCOCC3)c21 (stereo not shown) [Compound 189]; 101%
3) [O-][S+]1CCc2nc(N3CC[C@@H]4c5cc(Cl)ccc5OC[C@H]4C3)nc(NC3(CO)CCC3)c21 (stereo partly shown) [Compound 108]; 95.1%

Ask: What reported inhibition at 0.1 µM corresponds to [O-][S+]1CCc2nc(N3CCc4c(ncc5cc(Cl)ccc45)C3)nc(NC3(CO)CCC3)c21 (stereo not shown) [Compound 100] on Flpin-293-PDE4B2 cells (Homo sapiens)?
Reply: 97.3%
